tested on: HCT-116; test: NCI tumour cell line growth inhibition, 48 h
Counter-ions that a name gives are not always drawn. Active and inactive are the calls of the source. Rule as the data show it: active = GI50 up to about 1.1 µM and inactive = higher.
MEASUREMENT LABEL: GI50

CC1=CC(=O)/C(=C/Nc2nc(-c3ccc([N+](=O)[O-])cc3)cs2)C(=O)O1: > 100 µM (inactive)

Incoming: What GI50 appears in the records for this compound with HCT-116? Cc1ccc(Cc2n[nH]c(=O)n2/N=C\CC/C=N\n2c(Cc3ccc(C)cc3)n[nH]c2=O)cc1
Outgoing: 33.1 µM (inactive)

Incoming: Request: O=C1C(c2ccc(Br)cc2)=[N+]([O-])c2ccccc21
Outgoing: 14.4 µM (inactive)

Incoming: Request: CCN(CC)CCNc1ccc(C)c2sc3ccccc3c(=O)c12 [LUCANTHONE HYDROCHLORIDE]
Outgoing: 1.91 µM (inactive)

Incoming: Request: O=C(c1ccccc1)n1cc(-c2ccccc2)c2c(=O)nc[nH]c21
Outgoing: > 100 µM (inactive)
